Tested on: Fibroblast
Assay: Multiplex assay against human fibroblast
Type: toxicity, cell-based
Conditions: 24 h, 10 µM, compound concentration 10 uM, replicate 2
Recorded endpoint: Total Cell Count
Answer as a number with no unit attached.

Some compounds with recorded Total Cell Count:
Compound	Experimental target	Total Cell Count
C[C@H]1[C@H]2CC[C@H]3[C@@H]4CC=C5C[C@@H](N(C)C)CC[C@]5(C)[C@H]4CC[C@]23CN1C	Fibroblast	106
O=C1COc2nccc(-c3ccccc3F)c2CN1Cc1cc(C(F)(F)F)cc(C(F)(F)F)c1	Fibroblast	129
CCCN1CCC[C@@H]2Cc3n[nH]cc3C[C@H]21.Cl [QUINPIROLE HYDROCHLORIDE]	Fibroblast	209
CSCC[C@H](NC=O)C(=O)N[C@@H](CC(C)C)C(=O)N[C@@H](Cc1ccccc1)C(=O)O	Fibroblast	230
N#Cc1c(N)nc(SCc2csc(-c3ccc(Cl)cc3)n2)c(C#N)c1-c1ccc(OCCO)cc1	Fibroblast	131

Could you now consider this next compound?
The measured Total Cell Count associated with `N[C@@]1(C(=O)O)CO[C@H]2[C@H](C(=O)O)[C@H]21` reads 133

====

Tested on: Fibroblast
Assay: Multiplex assay against human fibroblast
Type: toxicity, cell-based
Settings: 48 h, 10 µM, compound concentration 10 uM, replicate 2
A collection of compounds and their measured Population Pyknosed Nuclei (%)
Give just the number in %; leave the unit off.

Some compounds with recorded Population Pyknosed Nuclei (%):
> print(dat)
                                   compound  readout.unit  reported.result
1  CCCN1CCC[C@@H]2Cc3n[nH]cc3C[C@H]21.Cl [QUINPIROLE HYDROCHLORIDE]             %                8
2   CNC[C@H](O)c1ccc(O)c(O)c1 [EPINEPHRINE]             %                5

Reported Fibroblast Population Pyknosed Nuclei (%) for item `CN(C)CCCc1cc(C(=O)Nc2ccc(-c3ccncc3)cc2)ccc1O.Cl.Cl` was 10

Reported Fibroblast Population Pyknosed Nuclei (%) for item `COc1cc(C(=O)N(CCCc2ccccc2)Cc2ccc(CC(=O)O)cc2)cc(OC)c1C` was 6

Reported Fibroblast Population Pyknosed Nuclei (%) for item `N[C@@]1(C(=O)O)CO[C@H]2[C@H](C(=O)O)[C@H]21` was 16

Reported Fibroblast Population Pyknosed Nuclei (%) for item `O=C1COc2nccc(-c3ccccc3F)c2CN1Cc1cc(C(F)(F)F)cc(C(F)(F)F)c1` was 11

Reported Fibroblast Population Pyknosed Nuclei (%) for item O=S(=O)(c1ccccc1)c1cnc2c(N3CCNCC3)cccc2c1 [INTEPIRDINE] was 12

Reported Fibroblast Population Pyknosed Nuclei (%) for item `CC1(COc2ccc3c(c2)ncn3-c2ccc3cccc(N4CCC(N)CC4)c3n2)COC1` was 33

Reported Fibroblast Population Pyknosed Nuclei (%) for item Cl.Clc1ccc2nsnc2c1NC1=NCCN1 [TIZANIDINE HYDROCHLORIDE] was 21

====

A collection of molecules and their measured Population Pyknosed Nuclei (%)
Tested on: HEK-293T
Test: Multiplex assay against HEK293T
Assay type: toxicity, cell-based
Conditions: human, 24 h, 10 µM, compound concentration 10 uM, replicate 2
Give just the number in %; leave the unit off.

Some molecules with recorded Population Pyknosed Nuclei (%):
Molecule	Experimental target	Readout unit	Population Pyknosed Nuclei (%)
Cc1ccc(F)cc1C(=O)Nc1ccc(C(=O)N2Cc3cccn3Cc3ccccc32)c(Cl)c1	HEK-293T	%	19
CN1CCN(c2nc3cc(C(F)(F)F)ccc3n3cccc23)CC1.O=C(O)/C=C\C(=O)O.O=C(O)/C=C\C(=O)O	HEK-293T	%	10
CCOc1c2c(c(OCC)c3ncccc13)CN(c1ccc(CS(=O)(=O)NC(=O)Cc3ccccc3OC)cc1C)C2=O	HEK-293T	%	9
COc1cc(NC(=O)CCN2CCC(OC(=O)Nc3ccccc3-c3ccccc3)CC2)c(Cl)cc1CNC[C@H](O)c1ccc(O)c2[nH]c(=O)ccc12	HEK-293T	%	19

The measured Population Pyknosed Nuclei (%) associated with `O=C(NCCO)c1cccc(-c2cc(Nc3ccc(OC(F)(F)F)cc3)ncn2)c1` reads 15

The measured Population Pyknosed Nuclei (%) associated with `Cc1nc2ccc(Oc3ccc(F)cc3)cc2c(=O)n1C[C@H]1CCCN(C(C)C)C1.Cl` reads 12

The measured Population Pyknosed Nuclei (%) associated with COc1ccc2c(c1)C(C(=O)N(Cc1ccc(N(C)C)cc1)c1ccc(C(C)C)cc1)CCC2.Cl (stereo unspecified) reads 16

The measured Population Pyknosed Nuclei (%) associated with `CN(C)c1ccnc2sc3c(=O)n(N4CCCCCC4)cnc3c12` reads 15

The measured Population Pyknosed Nuclei (%) associated with CSc1ccccc1N1CCN(CCCCCC(=O)NC2CCCc3ccccc32)CC1.Cl (stereo unspecified) reads 18

====

System: Fibroblast
Experiment: Multiplex assay against human fibroblast
Assay type: toxicity, cell-based
Conditions: 12 h, 1 µM, compound concentration 1 uM, replicate 2
Recorded endpoint: Population Membrane Permeable-Phenotype (%)
Give just the number in %; leave the unit off.

Some compounds with recorded Population Membrane Permeable-Phenotype (%):
Compound	Experimental target	Reported result
O=C(O)c1cc2ccccc2c(Cc2c(O)c(C(=O)O)cc3ccccc23)c1O	Fibroblast	6
CCNC1(C(N)=O)CCN(c2ncnc3c2nc(-c2ccccc2Cl)n3-c2ccc(Cl)cc2)CC1	Fibroblast	6
COc1cc(C(=O)N(CCCc2ccccc2)Cc2ccc(CC(=O)O)cc2)cc(OC)c1C	Fibroblast	11
N#Cc1c(N)nc(SCc2csc(-c3ccc(Cl)cc3)n2)c(C#N)c1-c1ccc(OCCO)cc1	Fibroblast	5
CCCN1CCC[C@@H]2Cc3n[nH]cc3C[C@H]21.Cl [QUINPIROLE HYDROCHLORIDE]	Fibroblast	7

The measured Population Membrane Permeable-Phenotype (%) associated with `c1cc(OCCCN2CCCCC2)ccc1CN1CCCCC1` reads 8

The measured Population Membrane Permeable-Phenotype (%) associated with `CCCC(CCC)C(=O)O` reads 10

The measured Population Membrane Permeable-Phenotype (%) associated with `CC[C@H]1OC(=O)[C@H](C)[C@@H](O[C@H]2C[C@@](C)(OC)[C@@H](O)[C@H](C)O2)[C@H](C)[C@@H](O[C@@H]2O[C@H](C)C[C@H](N(C)C)[C@H]2O)[C@@]2(C)CC(C)=C(O2)[C@H](C)[C@@H](O)[C@]1(C)O` reads 9

The measured Population Membrane Permeable-Phenotype (%) associated with Cl.Clc1ccc2nsnc2c1NC1=NCCN1 [TIZANIDINE HYDROCHLORIDE] reads 5

The measured Population Membrane Permeable-Phenotype (%) associated with `CCCn1c(=O)c2[nH]c(C3CCCC3)nc2n(CCC)c1=O` reads 1

The measured Population Membrane Permeable-Phenotype (%) associated with `C[C@@H]1C[C@H]2[C@@H]3CCC4=CC(=O)C=C[C@]4(C)[C@@]3(F)[C@@H](O)C[C@]2(C)[C@@]1(O)C(=O)CO` reads 9

The measured Population Membrane Permeable-Phenotype (%) associated with `O=C(O)Cc1ccccc1Nc1c(Cl)cccc1Cl` reads 7

The measured Population Membrane Permeable-Phenotype (%) associated with `Oc1c(CN2CCN(c3ccccn3)CC2)cc(Cl)c2cccnc12` reads 8

The measured Population Membrane Permeable-Phenotype (%) associated with CNC[C@H](O)c1ccc(O)c(O)c1 [EPINEPHRINE] reads 13

The measured Population Membrane Permeable-Phenotype (%) associated with `CC(C)(C)c1ccc(S(=O)(=O)Nc2ccc(Cl)cc2C(=O)c2cc[n+]([O-])cc2)cc1` reads 6

The measured Population Membrane Permeable-Phenotype (%) associated with `CN(C)c1ccnc2sc3c(=O)n(N4CCCCCC4)cnc3c12` reads 10

The measured Population Membrane Permeable-Phenotype (%) associated with `Cc1ccc(F)cc1C(=O)Nc1ccc(C(=O)N2Cc3cccn3Cc3ccccc32)c(Cl)c1` reads 1

====

System: Fibroblast
Experiment: Multiplex assay against human fibroblast
Assay type: toxicity, cell-based
Settings: 24 h, 1 µM, compound concentration 1 uM, replicate 2
Each record's Population Mitotic Cells (%) is compared with class 0 (below 50%), class 1 (50% to below 60%), class 2 (60% or more) to give its class.

Record excerpt, results attached:
Compound	Experimental target	Answer label
CSc1ccccc1N1CCN(CCCCCC(=O)NC2CCCc3ccccc32)CC1.Cl (configuration not stated)	Fibroblast	class 2
O=C(O)Cc1ccccc1Nc1c(Cl)cccc1Cl	Fibroblast	class 2
C[C@@H]1C[C@H]2[C@@H]3CCC4=CC(=O)C=C[C@]4(C)[C@@]3(F)[C@@H](O)C[C@]2(C)[C@@]1(O)C(=O)CO	Fibroblast	class 2
CCOc1c2c(c(OCC)c3ncccc13)CN(c1ccc(CS(=O)(=O)NC(=O)Cc3ccccc3OC)cc1C)C2=O	Fibroblast	class 1
c1cc(OCCCN2CCCCC2)ccc1CN1CCCCC1	Fibroblast	class 2
O=C1COc2nccc(-c3ccccc3F)c2CN1Cc1cc(C(F)(F)F)cc(C(F)(F)F)c1	Fibroblast	class 2

Request: Please classify: `Oc1c(CN2CCN(c3ccccn3)CC2)cc(Cl)c2cccnc12`
Result: class 1

Where do the numbers come from? From ChEMBL document CHEMBL5058577.
